Cited source for all entries: patent US11713335B2

# MIC values compiled below
# Test system: S. aureus MW2
# protocolNotes: Minimal inhibitory concentration, S. aureus MW2
# Assay type: cell-based
# assayContext: 16 hour minimal inhibitory concentration at 37° C.; read-out: MIC (μM) S. aureus MW2 (MRSA)

compound	unitOfMeasurement	MIC
CO[C@@H]1[C@@H](OC(N)=O)[C@@H](O)[C@H](Oc2ccc3c(O)c(NC(=O)c4ccc(N)c(-c5ccccc5)c4)c(=O)oc3c2C)OC1(C)C [Compound 86]	µM	20
CO[C@@H]1[C@@H](OC(N)=O)[C@@H](O)[C@H](Oc2ccc3c(O)c(NC(=O)c4cc(-c5ccccc5)ccc4O)c(=O)oc3c2C)OC1(C)C [Compound 87]	µM	20
CO[C@@H]1[C@@H](OC(N)=O)[C@@H](O)[C@H](Oc2ccc3c(O)c(NC(=O)c4cccc(-c5ccc(O)c(O)c5)c4)c(=O)oc3c2C)OC1(C)C [Compound 94]	µM	20

###

// values below are reported MIC
# Tested on: E. coli MC4100
# protocolNotes: Minimal inhibitory concentration, E. coli MC4100
# Format: cell-based
# assayContext: 16 hour minimal inhibitory concentration at 37° C.; read-out: MIC (μM) E. coli MC4100 ara+

molecularString	studySystem	MIC
CO[C@@H]1[C@@H](OC(N)=O)[C@@H](O)[C@H](Oc2ccc3c(O)c(NC(=O)c4cccc(-c5cccc(C(F)(F)F)c5)c4)c(=O)oc3c2C)OC1(C)C	E. coli MC4100	>200 µM
CO[C@@H]1[C@@H](O)[C@@H](OC(=O)c2ccc[nH]2)[C@H](Oc2ccc3c(O)c(NC(=O)c4ccc(O)c(CC=C(C)C)c4)c(=O)oc3c2C)OC1(C)C	E. coli MC4100	>200 µM
CO[C@@H]1[C@@H](OC(N)=O)[C@@H](O)[C@H](Oc2ccc3c(O)c(NC(=O)c4cccc(-c5cccc(O)c5O)c4)c(=O)oc3c2C)OC1(C)C	E. coli MC4100	>200 µM

###

Readings of MIC for the listed molecules
# System: WT E. coli
# protocolNotes: Minimal inhibitory concentration in wild-type E. coli
# Type: cell-based, Escherichia coli
# assayContext: Escherichia coli; wild-type E. coli, 37° C., 16 hours; read-out: MIC (μM) in WT E. coli
reportedProperty: MIC

molecularString	reportedProperty	observedValue
CO[C@@H]1[C@@H](OC(N)=O)[C@@H](O)[C@H](Oc2ccc3c(O)c(NC(=O)c4cccc(-c5ccccn5)c4)c(=O)oc3c2C)OC1(C)C	MIC	> 300 µM
CO[C@@H]1[C@@H](OC(N)=O)[C@@H](O)[C@H](Oc2ccc3c(O)c(NC(=O)c4cccc(-c5ccc(Br)cc5)c4)c(=O)oc3c2C)OC1(C)C	MIC	18 µM
CO[C@@H]1[C@@H](OC(N)=O)[C@@H](O)[C@H](Oc2ccc3c(O)c(NC(=O)c4cccc(-c5cccc(C)c5)c4)c(=O)oc3c2C)OC1(C)C	MIC	26 µM
CO[C@@H]1[C@@H](OC(N)=O)[C@@H](O)[C@H](Oc2ccc3c(O)c(NC(=O)c4cccc(-c5ccc(F)cc5)c4)c(=O)oc3c2C)OC1(C)C	MIC	26 µM
CO[C@@H]1[C@@H](OC(N)=O)[C@@H](O)[C@H](Oc2ccc3c(O)c(NC(=O)c4cccc(-c5ccc(C(C)C)cc5)c4)c(=O)oc3c2C)OC1(C)C	MIC	89 µM
CO[C@@H]1[C@@H](OC(N)=O)[C@@H](O)[C@H](Oc2ccc3c(O)c(NC(=O)c4c[nH]c5ccccc45)c(=O)oc3c2C)OC1(C)C	MIC	> 300 µM
CO[C@@H]1[C@@H](OC(N)=O)[C@@H](O)[C@H](Oc2ccc3c(O)c(NC(=O)c4cccc(N5CCN(C)CC5)c4)c(=O)oc3c2C)OC1(C)C	MIC	> 300 µM
CO[C@@H]1[C@@H](OC(N)=O)[C@@H](O)[C@H](Oc2ccc3c(O)c(NC(=O)c4cccc(S(F)(F)(F)(F)F)c4)c(=O)oc3c2C)OC1(C)C	MIC	> 300 µM
CO[C@@H]1[C@@H](OC(N)=O)[C@@H](O)[C@H](Oc2ccc3c(O)c(NC(=O)c4cccc(-c5ccc(N(C)C)cc5)c4)c(=O)oc3c2C)OC1(C)C	MIC	> 300 µM
CO[C@@H]1[C@@H](OC(N)=O)[C@@H](O)[C@H](Oc2ccc3c(O)c(NC(=O)c4ccc(O)cc4)c(=O)oc3c2C)OC1(C)C	MIC	> 300 µM
COc1cc(C(=O)Nc2c(O)c3ccc(O[C@@H]4OC(C)(C)[C@H](OC)[C@@H](OC(N)=O)[C@H]4O)c(C)c3oc2=O)cc(OC)c1OC	MIC	> 300 µM
CO[C@@H]1[C@@H](OC(N)=O)[C@@H](O)[C@H](Oc2ccc3c(O)c(NC(=O)c4cccc(-c5c(C)cccc5C)c4)c(=O)oc3c2C)OC1(C)C	MIC	133 µM
CO[C@@H]1[C@@H](OC(N)=O)[C@@H](O)[C@H](Oc2ccc3c(O)c(NC(=O)C45CC6CC(CC(C6)C4)C5)c(=O)oc3c2C)OC1(C)C	MIC	> 300 µM
CO[C@@H]1[C@@H](OC(N)=O)[C@@H](O)[C@H](Oc2ccc3c(O)c(NC(=O)c4cccc(N5CCOCC5)c4)c(=O)oc3c2C)OC1(C)C	MIC	> 300 µM
CO[C@@H]1[C@@H](OC(N)=O)[C@@H](O)[C@H](Oc2ccc3c(O)c(NC(=O)c4ccc[nH]4)c(=O)oc3c2C)OC1(C)C	MIC	> 300 µM
COc1cccc(-c2cccc(C(=O)Nc3c(O)c4ccc(O[C@@H]5OC(C)(C)[C@H](OC)[C@@H](OC(N)=O)[C@H]5O)c(C)c4oc3=O)c2)c1	MIC	89 µM
COc1ccc(C(=O)Nc2c(O)c3ccc(O[C@@H]4OC(C)(C)[C@H](OC)[C@@H](OC(N)=O)[C@H]4O)c(C)c3oc2=O)cc1OC	MIC	> 300 µM
